Cited source for all entries: patent US20250222146A1

target entity: SSTR2 (Homo sapiens)
Sequence (P30874 whole entry): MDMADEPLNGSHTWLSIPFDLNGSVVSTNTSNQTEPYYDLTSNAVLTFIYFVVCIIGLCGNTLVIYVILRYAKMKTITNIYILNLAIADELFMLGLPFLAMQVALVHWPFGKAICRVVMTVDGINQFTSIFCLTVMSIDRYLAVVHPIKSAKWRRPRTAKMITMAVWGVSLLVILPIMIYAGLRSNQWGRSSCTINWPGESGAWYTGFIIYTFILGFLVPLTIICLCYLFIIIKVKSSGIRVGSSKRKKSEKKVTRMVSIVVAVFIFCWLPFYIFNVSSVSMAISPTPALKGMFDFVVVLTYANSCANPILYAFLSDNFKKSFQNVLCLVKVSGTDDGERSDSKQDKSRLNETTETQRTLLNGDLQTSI
method description: SSTR binding affinity by radioligand binding competition assay ([125I]-Tyr11-Somatostatin, membrane extracts)
run conditions: SSTR2 Ki, radioligand competition, [125I]-Tyr11-Somatostatin 0.1 nM, membrane extracts; Ki from IC50 by Cheng Prusoff
pKi: −log10 of the molar value.
# pKi values compiled below

Examples with their reported pKi follow.
molecule | pKi
C[C@@H](O)[C@@H]1NC(=O)[C@H](CCCCN)NC(=O)[C@@H](Cc2c[nH]c3ccccc23)NC(=O)[C@H](Cc2ccc(O)cc2)NC(=O)[C@@H](CCSCC(=O)NCCCCCCNC(=O)CN2CCN3CCN4CCN(CC2)CC(=O)[O][Lu]([O]C(=O)C3)[O]C(=O)C4)N(C)C(=O)[C@H](Cc2ccccc2)NC1=O | 8.48 to 9.00
C[C@@H](O)[C@@H]1NC(=O)[C@H](CCCCN)NC(=O)[C@H](Cc2c[nH]c3ccccc23)NC(=O)[C@H](Cc2ccc(O)cc2)NC(=O)[C@H](CCSCC(=O)NCCCCCCNC(=O)CN2CCN3CCN4CCN(CC2)CC(=O)[O][Lu]([O]C(=O)C3)[O]C(=O)C4)N(C)C(=O)[C@H](Cc2ccccc2)NC1=O [RB-0005858] | 8.48 to 9.00

Ask: Suppose we examine the molecule `C[C@H](O)[C@@H]1NC(=O)[C@H](CCCCN)NC(=O)[C@@H](Cc2c[nH]c3ccccc23)NC(=O)[C@H](Cc2ccc(O)cc2)NC(=O)[C@H](CCSCC(=O)NCCCCCCNC(=O)CN2CCN3CCN4CCN(CC2)CC(=O)[O][Lu]([O]C(=O)C3)[O]C(=O)C4)N(C)C(=O)[C@H](Cc2ccccc2)NC1=O` ; what pKi value has been reported?
Result: > 9.00

Ask: Suppose we examine the molecule `C[C@@H](O)[C@@H]1NC(=O)[C@H](CCCCN)NC(=O)[C@@H](Cc2c[nH]c3ccccc23)NC(=O)[C@H](Cc2ccc(O)cc2)NC(=O)[C@H](CCCCNC(=O)COCCOCCOCCNC(=O)CN2CCN3CCN4CCN(CC2)CC(=O)[O][Lu]([O]C(=O)C3)[O]C(=O)C4)N(C)C(=O)[C@H](Cc2ccccc2)NC1=O` ; what pKi value has been reported?
Result: 8.00 to 8.48

Ask: Suppose we examine the molecule `C[C@@H](O)[C@@H]1NC(=O)[C@H](CCCCN)NC(=O)[C@@H](Cc2c[nH]c3ccccc23)NC(=O)[C@H](Cc2ccc(O)cc2)NC(=O)[C@H](CCCCNC(=O)COCCOCCNC(=O)CN2CCN3CCN4CCN(CC2)CC(=O)[O][Lu]([O]C(=O)C3)[O]C(=O)C4)N(C)C(=O)[C@H](Cc2ccccc2)NC1=O` ; what pKi value has been reported?
Result: 8.48 to 9.00

Ask: Suppose we examine the molecule `C[C@@H](O)[C@@H]1NC(=O)[C@H](CCCCN)NC(=O)[C@@H](Cc2c[nH]c3ccccc23)NC(=O)[C@H](Cc2ccc(O)cc2)NC(=O)[C@H](CCCCNC(=O)CCCCC[C@H](NC(=O)CN2CCN3CCN4CCN(CC2)CC(=O)[O][Lu]([O]C(=O)C3)[O]C(=O)C4)C(=O)O)N(C)C(=O)[C@H](Cc2ccccc2)NC1=O` ; what pKi value has been reported?
Result: 8.00 to 8.48
